Give measured EC50 for each item. Keep answers brief.
- TEST TARGET: human GPR119 (Homo sapiens)
- Construct: expression vector for human GPR119 cDNA (Acc. No. NP_848566)
- Sequence (Q8TDV5 1-335): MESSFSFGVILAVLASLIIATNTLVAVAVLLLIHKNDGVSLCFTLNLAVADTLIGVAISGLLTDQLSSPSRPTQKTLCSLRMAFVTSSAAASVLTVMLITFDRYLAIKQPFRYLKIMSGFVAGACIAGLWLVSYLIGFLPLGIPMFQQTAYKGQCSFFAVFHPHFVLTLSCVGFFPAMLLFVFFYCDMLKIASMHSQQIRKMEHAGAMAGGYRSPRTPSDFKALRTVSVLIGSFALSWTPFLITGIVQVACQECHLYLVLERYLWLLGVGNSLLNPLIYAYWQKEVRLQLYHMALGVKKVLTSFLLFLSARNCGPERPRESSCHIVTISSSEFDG
- ASSAY PROTOCOL: AlphaScreen cAMP assay in MIN6 cells stably transfected with human GPR119
- EXPERIMENTAL PARAMETERS: Min-6/hGPR119 cells, 45 minutes incubation at room temperature
All answers are understood in nM, so give the number only.

Enquiry: Record request: EC50 value, item CS(=O)(=O)c1ccc(-c2ncc(C(=O)N(C3CC3)C3CCN(c4noc(C5CC5)n4)CC3)cn2)cc1
Return: 92

Enquiry: Name the reported EC50 value associated with the compound Cc1cnc(N2CCC(N(C(=O)c3ccc(-c4cnco4)nc3)C3CC3)CC2)cn1
Return: 231

Enquiry: Returns the measured EC50 for the input compound. Input: CCc1noc(N2CCC(N(C(=O)c3cnc(-c4ccc(CC#N)cc4)nc3)C3CC3)CC2)n1
Return: 36

Enquiry: Which EC50 value is on record for CC(C)(C)c1noc(N2CCC(N(C(=O)c3ccc(-c4cnco4)nc3)C3CC3)CC2)n1 ?
Return: 46

----------
For each of the molecules below, state its pEC50.
- TEST TARGET: mutant form of the human GPR119 receptor (Homo sapiens, UniProt Q8TDV5, S329A/T327A)
- ASSAY PROTOCOL: LANCE cAMP-384 assay in HEK293 cells stably expressing a mutant form of the human GPR119 receptor
- EXPERIMENTAL PARAMETERS: cAMP accumulation, GPR119 stable HEK293 cells, LANCE kit, 20 min at 37° C.
# pEC50: negative log10 of molar concentration; output just the value

Enquiry: May I ask what pEC50 has been recorded for O=C(c1cnc(-n2cncn2)nc1)N(C1CC1)C1CCN(c2ncc(Cl)cn2)CC1 ?
Return: 7.14

Enquiry: # lookup: pEC50 of Cc1ncn(-c2cnc(C(=O)N(C3CC3)C3CCN(c4ncc(Cl)cn4)CC3)cn2)n1
Return: 6.90

Enquiry: Find the recorded pEC50 belonging to CCc1cnc(N2CC[C@@H](N(C(=O)c3cnc(-n4ccnc4C)nc3)C3CC3)[C@@H](F)C2)nc1 (single isomer, unassigned) and report it.
Return: 8.40

Enquiry: So what's the measured pEC50 for this one? O=C(c1cnc(-n2cncn2)nc1)N(C1CC1)[C@@H]1CCN(c2ncc(Cl)cn2)C[C@@H]1F (single isomer, unassigned)
Return: 7.19

Enquiry: Quick one: pEC50 of CCc1cnc(N2CCC(N(C(=O)c3cnc(-n4ccnc4C)cn3)C3CC3)CC2)nc1 ?
Return: 5.91

Enquiry: Recorded pEC50 for CCc1cnc(N2CC[C@@H](N(C(=O)c3cn(-c4ccc(C#N)cc4F)c(C)n3)C3CC3)[C@@H](F)C2)nc1 (single isomer, unassigned) , please?
Return: 6.10

Enquiry: Entry Cc1nccn1-c1cnc(C(=O)N(C2CC2)[C@H]2CCN(c3ccc(C(F)(F)F)cn3)C[C@H]2F)cn1 (single isomer, unassigned) has what pEC50?
Return: 6.47

Enquiry: Name the recorded pEC50 for CCc1cnc(N2CCC(N(C(=O)c3cn(-c4ccc(C#N)cc4F)cn3)C3CC3)C(F)C2)nc1 (single isomer, unassigned) .
Return: 7.28

Enquiry: Entry under review: Cc1ncn(-c2cnc(C(=O)N(C3CC3)C3CCN(c4nc(C(C)C)no4)CC3)cn2)n1 . Reported pEC50?
Return: 6.33

Enquiry: Any idea what pEC50 was measured for CCc1cnc(N2CC[C@@H](N(C(=O)c3ccc(-n4nnnc4C)nc3)C3CC3)[C@@H](F)C2)nc1 (single isomer, unassigned) ?
Return: 7.70

Enquiry: Would you kindly share the measured pEC50 for Cc1nnnn1-c1ccc(C(=O)N(C2CC2)C2CCN(c3ncc(C(F)(F)F)cc3F)CC2)cn1 ?
Return: 8.05

Enquiry: Entry Cc1ncnn1-c1ccc(C(=O)N(C2CC2)C2CCN(c3ncc(Cl)cn3)CC2)cn1 has what pEC50?
Return: 6.60

Enquiry: Fill blank: measured pEC50 of the molecule Cc1nccn1-c1ncc(C(=O)N(C2CC2)[C@@H]2CCN(c3ncc(Cl)cn3)C[C@@H]2F)cn1 (single isomer, unassigned) is ____.
Return: 8.15

Enquiry: I have this molecule here, CCc1cnc(N2CC[C@@H](N(C(=O)c3cnc(-n4cncn4)cn3)C3CC3)[C@@H](F)C2)nc1 (single isomer, unassigned) [Example 92] , and I need its recorded pEC50.
Return: 6.22

Enquiry: Reported pEC50 for Cc1nccn1-c1cnc(C(=O)N(C2CC2)[C@@H]2CCN(c3ccc(C(F)(F)F)cn3)C[C@@H]2F)cn1 (single isomer, unassigned) : what is it?
Return: 7.92

Enquiry: pEC50 lookup needed for Cc1ncn(-c2cnc(C(=O)N(C3CC3)[C@@H]3CCN(c4ncc(Cl)cn4)C[C@@H]3F)cn2)n1 (single isomer, unassigned) , thanks.
Return: 7.85

Hello, the source for this data is patent US8921398B2, in case you need it.
